Measured pIC50, listed per entry for reference.
molecular target: UniProt Q92731; test: Antagonist activity at human Gal4-ERbeta assessed as inhibition of 17beta-estradiol-induced effect by reporter gene assay; conditions: read-out: IC50
Scale for pIC50: -log10 of concentration given in mol/L; no unit attached.

# count of solved cases: 4
[[record]]
compound_smiles = "Oc1ccc(C2(c3ccc(O)cc3)CCCC2)cc1"
number = 6.57

[[record]]
compound_smiles = "Cc1cc(C2(c3ccc(O)c(C)c3)CCCC2)ccc1O"
number = 6.11

[[record]]
compound_smiles = "Oc1ccc(C2(c3ccc(O)cc3)CCCCC2)cc1"
number = 6.25

[[record]]
compound_smiles = "CCCCC(CCCC)(c1ccc(O)c(C)c1)c1ccc(O)c(C)c1"
number = 6.82


Inquiry: Query (molecule): CCC(CC)(c1ccc(O)cc1)c1ccc(O)cc1 ; field requested: pIC50
Reply text: 7.03

Inquiry: Same for CCCC(CCC)(c1ccc(O)c(C)c1)c1ccc(O)c(C)c1
Reply text: 6.85

----------
Molecular target: Estrogen receptor (Homo sapiens, UniProt P03372)
Sequence (P03372 whole entry): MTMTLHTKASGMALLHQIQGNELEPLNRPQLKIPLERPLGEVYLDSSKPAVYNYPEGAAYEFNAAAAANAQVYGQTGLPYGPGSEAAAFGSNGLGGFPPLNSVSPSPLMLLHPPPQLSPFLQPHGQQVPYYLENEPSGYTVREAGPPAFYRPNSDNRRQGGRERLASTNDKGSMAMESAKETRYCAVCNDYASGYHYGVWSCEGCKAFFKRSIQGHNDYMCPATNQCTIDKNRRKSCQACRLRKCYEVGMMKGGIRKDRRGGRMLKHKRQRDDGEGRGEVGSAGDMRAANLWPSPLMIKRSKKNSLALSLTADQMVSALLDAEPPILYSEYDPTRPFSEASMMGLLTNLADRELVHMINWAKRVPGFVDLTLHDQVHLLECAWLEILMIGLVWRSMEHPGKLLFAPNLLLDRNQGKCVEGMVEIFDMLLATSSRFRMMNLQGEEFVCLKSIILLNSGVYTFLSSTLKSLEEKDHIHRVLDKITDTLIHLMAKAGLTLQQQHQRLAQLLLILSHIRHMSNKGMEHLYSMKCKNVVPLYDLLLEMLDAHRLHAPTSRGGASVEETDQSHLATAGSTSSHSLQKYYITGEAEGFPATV
Assay: Agonist activity at human Gal4-ERalpha by reporter gene assay
Details: read-out: EC50
PROPERTY_MEASURED: EC50

Inquiry: Query (compound): Oc1ccc(Cc2ccc(O)cc2)cc1 ; field requested: EC50
Reply text: 910 nM

----------
Measured Activity, listed per entry for reference.
Biological target: UniProt:P03372
Sequence (whole entry): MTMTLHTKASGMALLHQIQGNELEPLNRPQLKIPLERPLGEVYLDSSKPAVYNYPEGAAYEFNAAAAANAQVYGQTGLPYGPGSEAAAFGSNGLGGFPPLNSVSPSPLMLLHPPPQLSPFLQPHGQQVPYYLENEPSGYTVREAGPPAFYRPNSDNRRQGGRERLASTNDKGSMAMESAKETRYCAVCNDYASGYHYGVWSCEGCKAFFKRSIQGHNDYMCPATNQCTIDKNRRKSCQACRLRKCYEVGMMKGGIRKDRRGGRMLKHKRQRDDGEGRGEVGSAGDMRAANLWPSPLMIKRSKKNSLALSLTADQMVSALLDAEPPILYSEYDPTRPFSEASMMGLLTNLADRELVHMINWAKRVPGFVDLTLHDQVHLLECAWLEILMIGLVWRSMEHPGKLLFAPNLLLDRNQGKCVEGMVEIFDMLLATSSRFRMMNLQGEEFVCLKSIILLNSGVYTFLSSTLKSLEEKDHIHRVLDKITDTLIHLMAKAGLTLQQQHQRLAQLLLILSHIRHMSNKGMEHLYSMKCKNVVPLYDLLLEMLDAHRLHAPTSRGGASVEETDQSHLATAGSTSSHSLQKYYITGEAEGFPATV
Experiment: Agonist activity at human Gal4-ERalpha at 10 uM by reporter gene assay relative to 17beta-estradiol
// units = %; emit number, no label

[[record]]
compound = "Cc1cc(Cc2ccc(O)c(C)c2)ccc1O"
display_unit = "%"
number = 23

[[record]]
compound = "Cc1cc(C(C)(C)c2ccc(O)cc2)ccc1O"
display_unit = "%"
number = 26

[[record]]
compound = "Cc1cc(C(C)(C)c2ccc(O)c(C)c2)ccc1O"
display_unit = "%"
number = 31


In the following, a different compound is considered.
Inquiry: Query (compound): CC(C)(c1ccc(O)cc1)c1ccc(O)cc1 [BISPHENOL A] ; field requested: Activity
Reply text: 33

----------
Target: UniProtKB P03372
Sequence (P03372 whole entry): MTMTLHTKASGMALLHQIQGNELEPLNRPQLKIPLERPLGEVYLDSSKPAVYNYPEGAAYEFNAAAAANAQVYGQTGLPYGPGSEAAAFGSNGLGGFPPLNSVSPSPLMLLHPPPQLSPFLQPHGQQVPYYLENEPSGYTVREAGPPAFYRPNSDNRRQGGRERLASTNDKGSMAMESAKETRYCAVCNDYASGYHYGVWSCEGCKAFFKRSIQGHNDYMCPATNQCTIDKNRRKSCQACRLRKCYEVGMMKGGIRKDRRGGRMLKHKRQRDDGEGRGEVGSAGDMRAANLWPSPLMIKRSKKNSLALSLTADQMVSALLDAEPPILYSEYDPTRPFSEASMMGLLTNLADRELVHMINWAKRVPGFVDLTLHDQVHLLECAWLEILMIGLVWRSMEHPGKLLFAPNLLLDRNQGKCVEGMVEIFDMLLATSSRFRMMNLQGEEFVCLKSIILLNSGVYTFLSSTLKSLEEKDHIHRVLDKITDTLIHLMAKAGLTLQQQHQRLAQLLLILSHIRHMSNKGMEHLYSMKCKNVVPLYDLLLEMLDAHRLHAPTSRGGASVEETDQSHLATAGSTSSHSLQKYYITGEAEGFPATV
Experiment: Antagonist activity at human Gal4-ERalpha assessed as inhibition of 17beta-estradiol-induced effect by reporter gene assay
Measured pIC50, listed per entry for reference.
Scale for pIC50: -log10 of concentration given in mol/L; no unit attached.

Inquiry: Query (compound): CCc1cc(C(CC)(CC)c2ccc(O)c(CC)c2)ccc1O ; field requested: pIC50
Reply text: 6.64

Inquiry: Same for CCC(CC)(c1ccc(N)c(C)c1)c1ccc(O)c(C)c1
Reply text: 7.01

Inquiry: Same for CCCCC(CCCC)(c1ccc(O)c(C)c1)c1ccc(O)c(C)c1
Reply text: 7.85

Inquiry: Same for CCCC(CCC)(c1ccc(O)c(CC)c1)c1ccc(O)c(CC)c1
Reply text: 6.31

Inquiry: Same for Cc1cc(C2(c3ccc(O)c(C)c3)CCCCC2)ccc1O
Reply text: 6.64

Inquiry: Same for CCC(CC)(c1ccc(O)cc1)c1ccc(O)c(C)c1
Reply text: 6.96

Inquiry: Same for CCCC(CCC)(c1ccc(O)c(C)c1)c1ccc(O)c(C)c1
Reply text: 8.31

----------
target: Estrogen receptor beta (Homo sapiens, UniProt Q92731); assay: Agonist activity at human Gal4-ERbeta by reporter gene assay; details: read-out: EC50
Sequence (Q92731 whole entry, the tested form may be a part): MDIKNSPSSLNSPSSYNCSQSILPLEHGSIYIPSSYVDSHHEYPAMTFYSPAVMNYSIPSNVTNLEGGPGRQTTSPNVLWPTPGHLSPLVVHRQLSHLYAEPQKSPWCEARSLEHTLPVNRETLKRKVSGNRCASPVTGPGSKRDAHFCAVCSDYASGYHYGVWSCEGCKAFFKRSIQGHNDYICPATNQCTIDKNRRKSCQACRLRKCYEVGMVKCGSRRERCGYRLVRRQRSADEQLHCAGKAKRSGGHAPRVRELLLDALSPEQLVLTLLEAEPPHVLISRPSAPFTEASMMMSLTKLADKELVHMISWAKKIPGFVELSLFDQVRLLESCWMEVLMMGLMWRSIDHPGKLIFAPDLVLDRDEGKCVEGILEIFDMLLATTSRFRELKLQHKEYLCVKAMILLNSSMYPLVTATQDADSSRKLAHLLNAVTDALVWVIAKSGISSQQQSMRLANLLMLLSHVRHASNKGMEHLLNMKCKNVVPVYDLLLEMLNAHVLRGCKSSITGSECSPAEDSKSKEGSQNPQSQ
PROPERTY_MEASURED: EC50
Put your answer as a value accompanied by its unit after it.

[[record]]
compound_smiles = "Cc1cc(Cc2ccc(O)c(C)c2)ccc1O"
property_measured = "EC50"
result = "5.5 µM"


In the following, a different molecule is considered.
Inquiry: Query (molecule): Oc1ccc(Cc2ccc(O)cc2)cc1 ; field requested: EC50
Reply text: 1.9 µM

----------
Molecular target: Estrogen receptor (Homo sapiens, UniProt P03372)
Sequence (P03372 whole entry): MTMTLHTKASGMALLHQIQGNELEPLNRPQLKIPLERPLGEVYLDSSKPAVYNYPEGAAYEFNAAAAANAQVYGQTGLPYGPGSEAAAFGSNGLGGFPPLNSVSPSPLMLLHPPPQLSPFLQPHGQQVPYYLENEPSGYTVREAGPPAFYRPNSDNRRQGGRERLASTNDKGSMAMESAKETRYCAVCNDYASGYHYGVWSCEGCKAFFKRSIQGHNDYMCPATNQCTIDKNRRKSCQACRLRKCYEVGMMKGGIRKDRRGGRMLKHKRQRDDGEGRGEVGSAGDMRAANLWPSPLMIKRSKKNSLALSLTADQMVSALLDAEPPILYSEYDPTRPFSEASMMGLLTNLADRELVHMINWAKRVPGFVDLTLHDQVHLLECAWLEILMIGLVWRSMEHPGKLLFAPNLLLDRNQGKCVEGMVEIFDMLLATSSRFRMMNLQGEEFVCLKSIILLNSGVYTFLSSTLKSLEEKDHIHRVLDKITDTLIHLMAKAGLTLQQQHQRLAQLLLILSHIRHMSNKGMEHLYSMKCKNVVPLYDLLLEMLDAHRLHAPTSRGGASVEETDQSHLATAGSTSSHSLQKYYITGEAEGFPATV
Assay: Agonist activity at human Gal4-ERalpha by reporter gene assay
PROPERTY_MEASURED: EC50

# count of solved cases: 8
[[record]]
compound_smiles = "Oc1ccc(C2(c3ccc(O)cc3)CCCCC2)cc1"
measured_on = "Estrogen receptor (Homo sapiens, UniProt P03372)"
result = "Not Active"

[[record]]
compound_smiles = "CCCc1cc(C(CCC)(CCC)c2ccc(O)c(CCC)c2)ccc1O"
measured_on = "Estrogen receptor (Homo sapiens, UniProt P03372)"
result = "Not Active"

[[record]]
compound_smiles = "CCCCC(CCCC)(c1ccc(O)c(C)c1)c1ccc(O)c(C)c1"
measured_on = "Estrogen receptor (Homo sapiens, UniProt P03372)"
result = "Not Active"

[[record]]
compound_smiles = "CCC(CC)(c1ccc(O)cc1)c1ccc(O)cc1"
measured_on = "Estrogen receptor (Homo sapiens, UniProt P03372)"
result = "Not Active"

[[record]]
compound_smiles = "CCc1cc(C(CC)(CC)c2ccc(O)c(CC)c2)ccc1O"
measured_on = "Estrogen receptor (Homo sapiens, UniProt P03372)"
result = "Not Active"

[[record]]
compound_smiles = "CCCCC(CCCC)(c1ccc(O)c(CCC)c1)c1ccc(O)c(CCC)c1"
measured_on = "Estrogen receptor (Homo sapiens, UniProt P03372)"
result = "Not Active"

[[record]]
compound_smiles = "CCCCC(CCCC)(c1ccc(O)c(CC)c1)c1ccc(O)c(CC)c1"
measured_on = "Estrogen receptor (Homo sapiens, UniProt P03372)"
result = "Not Active"

[[record]]
compound_smiles = "CCCC(CCC)(c1ccc(O)cc1)c1ccc(O)cc1"
measured_on = "Estrogen receptor (Homo sapiens, UniProt P03372)"
result = "Not Active"


In the following, a different compound is considered.
Inquiry: Item: Cc1cc(C2(c3ccc(O)c(C)c3)CCCC2)ccc1O Test system: Estrogen receptor (Homo sapiens, UniProt P03372) Read-out: EC50 Value: ?
Reply text: Not Active

Cited source for all entries: ChEMBL document CHEMBL2401681
